// provenance: patent US12534534

Biological target: T1, TNFRSF1A-Fc (human, UniProt P19438 30-211, limits assumed)
T1 construct: bought; also called TNFRSF1A (R&D Systems, 372-RI-050/CF); not shown: Fc part of the bought fusion
T1 sequence (looked up): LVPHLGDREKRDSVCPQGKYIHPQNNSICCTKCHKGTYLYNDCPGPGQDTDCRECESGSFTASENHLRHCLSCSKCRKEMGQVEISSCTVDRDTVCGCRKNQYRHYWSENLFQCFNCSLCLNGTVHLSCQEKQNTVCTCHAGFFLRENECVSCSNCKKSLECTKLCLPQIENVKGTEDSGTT
Experiment: SPR, antigen immobilised on CM5 chip
measured_parameter: binding result

- binder: "G1AA/FS30-15 (antibody, human IgG1, kappa, L234A L235A, V domains shown, human IgG1 with LALA mutation in CH2; also called FS30-15 mAb) VH: EVQLLESGGGLVQPGGSLRLSCAASGFTFSGSGMSWVRQAPGKGLEWVSIIYSTNGDTDYADSVKGRFTISRDNSKNTLYLQMNSLRAEDTAVYYCARDFYDIANYYAFDYWGQGTLVTVSS VL: EIVLTQSPGTLSLSPGERATLSCRASQSVSSSYLAWYQQKPGQAPRLLIYGASSRATGIPDRFSGSGSGTDFTLTISRLEPEDFAVYYCQQAYYDPITFGQGTKVEIKR"
  measured_parameter: "binding result"
  value_measured: "binds"
- binder: "FS20-22-49AA/FS30-15 (bispecific antibody, human IgG1, kappa, L234A L235A, V domains shown, also called FS30-15 in mAb^2 format) VH: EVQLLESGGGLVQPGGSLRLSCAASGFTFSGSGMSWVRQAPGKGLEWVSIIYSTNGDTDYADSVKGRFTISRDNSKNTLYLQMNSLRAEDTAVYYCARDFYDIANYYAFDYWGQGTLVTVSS VL: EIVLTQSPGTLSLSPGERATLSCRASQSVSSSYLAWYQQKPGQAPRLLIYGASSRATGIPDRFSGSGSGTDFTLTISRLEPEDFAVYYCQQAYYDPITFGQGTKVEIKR"
  measured_parameter: "binding result"
  value_measured: "binds"
